Hi there, I'd appreciate the recorded IC50 for every entry that follows.
# study target: HO-1 (rat spleen) (Rattus norvegicus, UniProt P06762)
# Construct: Spleen microsomes were used as a source of HO-1; from tissue; host or cells: spleen microsomal fraction of adult male Sprague-Dawley rats
# Sequence (P06762 whole entry): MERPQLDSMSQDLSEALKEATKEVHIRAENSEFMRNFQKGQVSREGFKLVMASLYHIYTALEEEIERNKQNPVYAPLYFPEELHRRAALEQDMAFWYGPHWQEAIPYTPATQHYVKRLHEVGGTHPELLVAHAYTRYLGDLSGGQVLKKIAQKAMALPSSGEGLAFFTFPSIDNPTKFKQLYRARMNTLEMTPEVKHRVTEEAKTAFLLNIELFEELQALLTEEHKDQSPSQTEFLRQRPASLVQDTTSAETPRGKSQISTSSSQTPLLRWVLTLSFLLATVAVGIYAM
# method summary: HO enzymatic activity in rat spleen microsomal fraction (CO formed from methemalbumin, gas chromatography)
# Type: biochemical
# conditions: rat spleen microsomes; average ± standard deviation of replicate experiments; read-out: IC50 HO-1 (rat spleen)/μM
Structures can show the parent of a compound that is named as a salt.
Give bare numbers, in µM.

compound: c1ccc(Cc2ccc(C3(Cn4ccnc4)OCCO3)cc2)cc1 [hydrochloride]
IC50 / µM: 4.98
//
compound: O=C(CCc1ccc(I)cc1)Cn1ccnc1 [hydrochloride]
IC50 / µM: 0.11
//
compound: Clc1ccc(CC[C@@]2(Cn3ccnc3)OCC(COc3ccc(Br)cc3)O2)cc1 (stereo in doubt) [hydrochloride]
IC50 / µM: 3.5
//
compound: O=C(Cc1ccccc1)C(Cn1ccnc1)c1ccccc1 (racemic) [hydrochloride]
IC50 / µM: 3.85
//
compound: O=C(Cn1ccnc1)c1ccc(Cl)c(Cl)c1
IC50 / µM: 1.24

Record IC50 for all entries; do not skip any.
1. Nc1cccc(SC[C@@H]2CO[C@@](CCc3ccc(Cl)cc3)(Cn3ccnc3)O2)c1 [hydrochloride]
2. c1ccc(CSCCn2ccnc2)cc1 [1-(2-benzylsulfanyl-ethyl)-1H-imidazole]

4
4
